Assayed System: D(4) dopamine receptor (Homo sapiens, UniProt P21917)
Sequence (P21917 whole entry): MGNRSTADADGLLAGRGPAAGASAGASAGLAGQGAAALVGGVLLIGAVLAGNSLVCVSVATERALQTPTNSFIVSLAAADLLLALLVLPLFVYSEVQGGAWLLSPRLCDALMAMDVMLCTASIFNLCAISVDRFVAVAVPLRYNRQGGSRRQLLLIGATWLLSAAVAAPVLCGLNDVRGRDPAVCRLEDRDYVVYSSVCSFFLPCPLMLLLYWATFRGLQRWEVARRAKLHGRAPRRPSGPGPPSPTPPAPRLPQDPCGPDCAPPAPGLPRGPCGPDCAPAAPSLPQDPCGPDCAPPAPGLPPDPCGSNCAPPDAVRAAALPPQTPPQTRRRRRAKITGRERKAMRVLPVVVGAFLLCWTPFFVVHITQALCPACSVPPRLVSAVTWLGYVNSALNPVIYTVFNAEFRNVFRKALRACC
Each item that follows carries a reported Ki.

Input Smiles: O=C1CCc2ccc(OCCCCN3CCC(O)(c4ccc(Cl)cc4)CC3)cc2N1
Unit Text: nM
Ki: 1310
//
Input Smiles: COc1ccc(N2CCN(CCCCOc3ccc4c(c3)NC(=O)CC4)CC2)cc1
Unit Text: nM
Ki: 359
//
Input Smiles: COc1ccccc1N1CCN(CCCCOc2ccc3ccc(=O)[nH]c3c2)CC1
Unit Text: nM
Ki: 30.1
//
Input Smiles: COc1ccc(N2CCN(CCCCOc3ccc4c(c3)NC(=O)CC4)CC2)c(OC)c1
Unit Text: nM
Ki: 286
//
Input Smiles: O=C1CCc2ccc(OCCCCN3CCN(c4ccccc4OCCF)CC3)cc2N1
Unit Text: nM
Ki: 185
//
Input Smiles: CN1CN(c2ccccc2)C2(CCN(CCCCOc3ccc4c(c3)NC(=O)CC4)CC2)C1=O
Unit Text: nM
Ki: 865

* * *

Assayed System: Sigma non-opioid intracellular receptor 1 (Cavia porcellus)
Sequence (Q60492 whole entry): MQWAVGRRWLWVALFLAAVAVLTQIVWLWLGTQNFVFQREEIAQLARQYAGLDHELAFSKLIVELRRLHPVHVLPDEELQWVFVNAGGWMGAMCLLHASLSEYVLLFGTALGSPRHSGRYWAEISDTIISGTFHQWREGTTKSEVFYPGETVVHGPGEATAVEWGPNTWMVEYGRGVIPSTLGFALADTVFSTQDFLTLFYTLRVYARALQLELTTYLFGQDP
pKi: −log10 of the molar value.

Input Smiles: O=C1CCc2ccc(OCCCCN3CCN(c4ccccc4OCCF)CC3)cc2N1
pKi: 4.87
--
Input Smiles: COc1ccc(N2CCN(CCCCOc3ccc4c(c3)NC(=O)CC4)CC2)cc1
pKi: 6.77
--
Input Smiles: COc1ccccc1N1CCN(CCCCCOc2ccc3ccc(=O)[nH]c3c2)CC1
pKi: 5.79
--
Input Smiles: COc1ccccc1N1CCN(CCCCOc2ccc3ccc(=O)[nH]c3c2)CC1
pKi: 5.58
--
Input Smiles: COc1ccccc1N1CCN(CCCCCOc2ccc3c(c2)NC(=O)CC3)CC1
pKi: 5.87
--
Input Smiles: COc1ccccc1N1CCN(CCCCOc2ccc3c(c2)NC(=O)CC3)CC1
pKi: 5.93
--
Input Smiles: COc1cc(C)ccc1N1CCN(CCCCOc2ccc3c(c2)NC(=O)CC3)CC1
pKi: 6.42
--
Input Smiles: O=c1ccc2ccc(OCCCCN3CCN(c4ccccc4OCCF)CC3)cc2[nH]1
pKi: 4.68
--
Input Smiles: O=C1CCc2ccc(OCCCCN3CCC(O)(c4ccc(Cl)cc4)CC3)cc2N1
pKi: 6.38
--
Input Smiles: COc1ccc(N2CCN(CCCCOc3ccc4c(c3)NC(=O)CC4)CC2)c(OC)c1
pKi: 6.21
--
Input Smiles: COc1ccccc1N1CCN(CCCOc2ccc3ccc(=O)[nH]c3c2)CC1
pKi: 5.59
--
Input Smiles: COc1ccccc1N1CCN(CCCOc2ccc3c(c2)NC(=O)CC3)CC1
pKi: 6.12
